Here we gather Ki data for 5-hydroxytryptamine receptor 2A (Rattus norvegicus) reported by several publications.
Endpoint name: Ki (nM)

Examples with answers:
> print(dat)
                                   molecule  units.label  endpoint.value
1  COc1ccccc1N1CCN(CCCNc2ccn3c(n2)nc2c3c(=O)n(C)c(=O)n2C)CC1           nM             835
2  CCOc1nc2c(c(=O)n(C)c(=O)n2C)n1CCCN1CCN(c2ccccc2OC)CC1           nM             980

a = COc1ccc2c(c1)CCc1ccccc1C2CN (configuration not stated)
b = COc1ccccc1N1CCN(CCCn2c(=O)ccn3c4c(=O)n(C)c(=O)n(C)c4nc23)CC1
c = O=C(CCCN1CCN(c2cccc(Cl)c2Cl)CC1)c1cc2c3c(c1)CCC(=O)N3CCC2
d = CCOc1ccccc1N1CCN(CCCNC(=O)c2ccccn2)CC1
Problem: # rank by Ki, ascending (min first) Give your ranking as a list of the labels in the requested order.
Result: c, d, a, b
(c: 79.8 nM, d: 119 nM, a: 800 nM, b: 3880 nM)

----------
pKi: −log10 of the molar value.
This section presents pKi values reported for 5-hydroxytryptamine receptor 2A (Rattus norvegicus) in the literature.

Sample records with pKi:
> print(dat)
                                   molecule  endpoint.name  endpoint.value
1   CCCN(C1CCCC1)[C@H]1COc2cccc(C(N)=O)c2C1            pKi          < 6.00
2  O=C1C2CCCN2C(=O)N1CCCCCNCC1CCc2ccccc2O1 (stereo not given)            pKi          < 6.00

Problem: Missing value: pKi, 5-hydroxytryptamine receptor 2A (Rattus norvegicus), entry O=C1C2C3C=CC(C3)C2C(=O)N1OCCN1CCN(c2ccccc2Cl)CC1 (stereo not given) . Fill in?
Result: < 5.00

Problem: For Cc1cn2c3c(=O)n(C)c(=O)n(C)c3nc2n1CCCN1CCN(c2ccccc2)CC1 then?
Result: < 6.00

Problem: Item: CCOc1ccccc1OCCNCCCCN1C(=O)C2CCCN2C1=O.Cl (stereo not given)
Result: < 6.00

----------
// merged dataset of pKi values, system = 5-hydroxytryptamine receptor 2A (Rattus norvegicus, UniProt P14842), multiple refs
Sequence (P14842 whole entry): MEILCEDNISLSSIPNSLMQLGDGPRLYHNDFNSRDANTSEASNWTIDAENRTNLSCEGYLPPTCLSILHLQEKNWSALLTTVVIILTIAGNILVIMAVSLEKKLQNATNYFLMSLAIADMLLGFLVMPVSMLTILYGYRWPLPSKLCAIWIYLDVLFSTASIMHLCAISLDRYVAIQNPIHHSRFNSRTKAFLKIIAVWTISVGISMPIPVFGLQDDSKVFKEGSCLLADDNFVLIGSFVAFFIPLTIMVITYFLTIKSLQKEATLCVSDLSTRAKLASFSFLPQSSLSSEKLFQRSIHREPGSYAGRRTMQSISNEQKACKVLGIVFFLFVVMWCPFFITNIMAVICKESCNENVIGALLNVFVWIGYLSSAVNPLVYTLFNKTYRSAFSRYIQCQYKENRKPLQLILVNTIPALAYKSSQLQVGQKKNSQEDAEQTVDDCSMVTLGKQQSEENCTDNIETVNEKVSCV
pKi: −log10 of the molar value.

> print(dat)
                                   molecule                                       tgt  endpoint.value
1  Cl.O=C1C2CCCCN2C(=O)CN1CCCCNCC1CCc2ccccc2O1 (stereo not drawn)  5-hydroxytryptamine receptor 2A (Rattus norvegicus, UniProt P14842)          < 6.00
2        COc1cccc2c1nc(N1CCNCC1)n2Cc1ccccc1  5-hydroxytryptamine receptor 2A (Rattus norvegicus, UniProt P14842)          < 6.00

--- query ---
Problem: # query: pKi of entry O=[N+]([O-])c1cc(NC(=S)Nc2ccccc2Cl)ccc1Cl
Result: < 5.00

----------
Consider the following pKi data for 5-hydroxytryptamine receptor 2A (Rattus norvegicus, UniProt P14842), collected from several reports.
pKi: −log10 of the molar value.
Endpoint name: pKi

> print(dat)
                               entry.smiles                                       tgt  endpoint.value
1  COc1cc(=O)oc2cc(OCCCN3CCN(c4ccccn4)CC3)ccc12  5-hydroxytryptamine receptor 2A (Rattus norvegicus, UniProt P14842)            6.27

P = c1ccc(N2CCN(CCCCCCN3CCN(c4ccccn4)CC3)CC2)nc1
Q = Clc1ccc(-n2cc(CCCCCN3CCN(c4ccccc4)CC3)cn2)cc1
Problem: Field: lower pKi | Options: P / Q // output: label of the selected item
Result: Q
(Q: 6.02, P: 7.35)
